Reported Kd values for the following binders.
- SYSTEM: T1, LTKTG-EGFL (human LTK amino acids 63-420) (human, UniProt P29376 63-420)
- T1 construct: Fc-His6 tag removed by caspase 3; also called LTK (in BLI, SEC-MALLS and ITC)
- T1 sequence: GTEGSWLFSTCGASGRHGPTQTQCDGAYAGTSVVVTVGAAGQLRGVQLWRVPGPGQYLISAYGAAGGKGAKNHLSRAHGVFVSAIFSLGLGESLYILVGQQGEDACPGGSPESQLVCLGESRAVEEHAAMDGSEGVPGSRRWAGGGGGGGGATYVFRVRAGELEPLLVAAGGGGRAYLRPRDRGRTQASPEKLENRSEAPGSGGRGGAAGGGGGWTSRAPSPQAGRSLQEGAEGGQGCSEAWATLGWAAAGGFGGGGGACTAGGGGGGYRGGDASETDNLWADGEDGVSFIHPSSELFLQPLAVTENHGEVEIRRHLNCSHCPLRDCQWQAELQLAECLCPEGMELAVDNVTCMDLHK
- EXPERIMENT_NOTES: ITC, 310 K, one-site model, 2:1 stoichiometry
Quick reminder: number only, in nM, skip the unit.

binder="ALKAL1 (truncated, residues 57-129) (ligand, human, UniProt Q6UXT8 57-129, looked up, range 57-129; Tag-free in ITC, SEC-MALLS, crystals and Ba/F3 assays; also called ALKAL1^WT; WT ALKAL1) PSGSRSAEIFPRDSNLKDKFIKHFTGPVTFSPECSKHFHRLYYNTRECSTPAYYKRCARLLTRLAVSPLCSQT" property=Kd result_number=10

Moving on to the next binder.
Task: Quick one: Kd for ALKAL2 (truncated, residues 78-152) (ligand, human, UniProt Q6UX46 78-152, looked up, range 78-152; Tag-free in ITC, SEC-MALLS, crystals and Ba/F3 assays; also called ALKAL2^WT; WT ALKAL2) PSPEQRVEIVPRDLRMKDKFLKHLTGPLYFSPKCSKHFHRLYHNTRDCTIPAYYKRCARLLTRLAVSPVCMEDKQ ?
Result: 55
